B1: ZNF511 (parent)
chain: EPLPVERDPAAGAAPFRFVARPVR

Variants of: B1
Test: protein stability index of a GFP-peptide fusion (GPS, HEK-293T) (PSI 1-6); higher = more stable;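 note: lentivirally expressed fusions sorted by FACS into six bins by GFP to DsRed ratio, PSI derived from sequencing read proportions per bin multiplied by bin number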
Details: c terminus: a fixed tail appended
experimental readout: protein stability index

1. R17Y: 2.98
2. P22R: 2.8
3. V5K: 1.77
4. P2T: 2.1
5. R7E: 3.03
6. A20T: 2.8
7. R17H: 4.17
8. P22C: 2.17
9. E6I: 2.34
10. E6M: 2.52
11. E6Y: 2.03
